# target: Phenylethanolamine N-methyltransferase (Bos taurus, UniProt P10938)
# Sequence (P10938 whole entry): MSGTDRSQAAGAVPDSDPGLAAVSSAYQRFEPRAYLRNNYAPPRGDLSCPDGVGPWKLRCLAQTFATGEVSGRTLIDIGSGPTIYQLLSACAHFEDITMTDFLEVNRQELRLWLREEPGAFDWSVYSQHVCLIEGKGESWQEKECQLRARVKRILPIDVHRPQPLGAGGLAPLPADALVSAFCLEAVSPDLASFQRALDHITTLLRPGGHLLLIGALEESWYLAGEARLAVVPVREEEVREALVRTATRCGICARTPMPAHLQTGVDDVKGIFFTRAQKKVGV
# measurementNotes: The compound was tested for In vitro inhibitory activity against Phenylethanolamine N-Methyltransferase (PNMT)

chemicalSmiles	Ki / µM
NCCc1cccc(O)c1	1250
NCCc1ccc(O)cc1	294
